Experiment: Log D by shake flask method (octanol / PBS pH 7.4, HPLC)
Assay type: physicochemical
Conditions: octanol / PBS pH 7.4, shake flask; read-out: logD
MEASURE NAME: logD

COMPOUND | VAL
CCNC(=O)C(=O)CC[C@H](NC(=O)c1csc2ccccc12)C(=O)Nc1cccn(CC(=O)NC23CCCC4CC(CCC42)C3)c1=O (stereo partly drawn) [Compound I-78] | 3 to 5

Which value of logD has been reported for CCNC(=O)C(=O)CC[C@H](NC(=O)c1cncn1C)C(=O)Nc1cccn(CC(=O)NC23CC4CC(CC(C4)C2)C3)c1=O [Compound I-1] in the records?
< 1

Which value of logD has been reported for CCNC(=O)C(=O)CC[C@H](NC(=O)c1oc2ccccc2c1C)C(=O)Nc1cccn(CC(=O)N[C@@H]2C[C@@H]3CC[C@H]2C3)c1=O [Compound I-68] in the records?
1 to 3
